Measured pIC50 values are reported for all entries that follow.
# assayedTarget: UniProtKB P29990
Non-standard residues stand in square brackets, D forms with d. Residues, ends and D or L forms follow the SMILES beside them. ξ: configuration not given here. *: point of attachment. Benzoyl(2,6-F2) = O=C(c1c(F)cccc1F)*; Benzoyl(4-F) = O=C(c1ccc(F)cc1)*; ξR = N=C(N)NCCCC(N)C(=O)O; Nle = CCCC[C@H](N)C(=O)O; Bz = O=C(c1ccccc1)*; CF3 = FC(F)(F)*
# pIC50: negative log10 of molar concentration; output just the value

Solved entries (count: 2):
compound	pIC50
CCCC[C@H](NC(=O)c1c(F)cccc1F)C(=O)N[C@@H](CCCCN)C(=O)N[C@@H](CCCNC(=N)N)C(=O)NC(CCCNC(=N)N)C(=O)C(F)(F)F (stereo partly drawn) [II] ({Benzoyl(2,6-F2)}-[Nle]KR[ξR]-CF3)	4.72
CCCC[C@H](NC(=O)c1ccccc1)C(=O)N[C@@H](CCCCN)C(=O)N[C@@H](CCCNC(=N)N)C(=O)NC(CCCNC(=N)N)C(=O)C(F)(F)F (stereo partly drawn) [IV] (Bz-[Nle]KR[ξR]-CF3)	4.96

The record that follows has no pIC50 shown yet.
Report pIC50 on UniProtKB P29990 for this entry: CCCC[C@H](NC(=O)c1ccc(F)cc1)C(=O)N[C@@H](CCCCN)C(=O)N[C@@H](CCCNC(=N)N)C(=O)NC(CCCNC(=N)N)C(=O)C(F)(F)F (stereo partly drawn) [V] ({Benzoyl(4-F)}-[Nle]KR[ξR]-CF3) 4.62
